subject of test: recombinant eIF4E (Homo sapiens (Human))
Sequence (P06730 whole entry): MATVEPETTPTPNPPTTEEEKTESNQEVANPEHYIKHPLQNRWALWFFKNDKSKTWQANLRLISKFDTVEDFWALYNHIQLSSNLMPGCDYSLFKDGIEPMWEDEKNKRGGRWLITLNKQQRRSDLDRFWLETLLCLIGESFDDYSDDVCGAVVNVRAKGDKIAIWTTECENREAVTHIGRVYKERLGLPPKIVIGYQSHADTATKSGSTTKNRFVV
test protocol: Fluorescence polarization competition assay for eIF4E binding potency
test settings: inhibition of eIF4E/EDA-m7GDP-ATTO-550 binding by 50%; Table 4B calculated values; read-out: IC50
endpoint label: IC50 (nM)

                          chemical_structure   val
 0  Cc1nc2cnc(N(C)C3CCN(C4CC(F)(F)C4)CC3)c(C#N)c2c(=O)n1CC#Cc1ccc(Cl)cc1-c1ccnc2c(C(=O)O)csc12  22.3
 1  Cc1cc(-c2cc(Cl)ccc2OCCn2c(C)nc3c(CN4CCN(C)CC4)c(C(F)(F)F)cc(C#N)c3c2=O)c2scc(C(=O)O)c2n1  42.1
 2  N#Cc1cccc2nc(C(F)F)n(CCOc3ccc(Cl)cc3-c3ccc(C(=O)O)c(C(=O)O)c3)c(=O)c12  20.5
 3  Cc1nc2cc(CN(C)Cc3cn(C)nn3)c(OC(F)F)c(C#N)c2c(=O)n1CCOc1ccc(Cl)cc1-c1ccnc2c(C(=O)O)csc12  21.8
 4  Cc1nc2ccc(CCN(C)C)c(C#N)c2c(=O)n1CCOc1ccc(Cl)cc1-c1ccc(C(F)(F)F)c2c(C(=O)O)csc12    32
 5  Cc1cc(-c2cc(Cl)ccc2OCCn2c(C)nc3cc(C(F)(F)F)c(N4CCC(C(F)(F)F)CC4)nc3c2=O)c2scc(C(=O)O)c2n1   161
 6  Cc1cc(-c2cc(Cl)ccc2OCCn2c(C)nc3cnc(C(F)F)c(C#N)c3c2=O)c2scc(C(=O)O)c2n1  20.7
 7  Cc1cc(-c2cc(Cl)ccc2OCCn2c(C)nc3cc(C(F)(F)F)c(CN4CCN(C(C)(C)C)CC4)c(C#N)c3c2=O)c2scc(C(=O)O)c2n1  19.3
 8  Cc1nc2cc(C(F)(F)F)cc(C#N)c2c(=O)n1CCOc1ccc(Cl)cc1-c1ccnc2c(C(=O)O)c(Cl)sc12  26.6
 9  Cc1nc2cnc(N3CC4(C3)CN(C3(CF)CC3)C4)c(C#N)c2c(=O)n1CCOc1ccc(Cl)cc1-c1ccnc2c(C(=O)O)csc12  14.3
10  Cc1cc(-c2cc(Cl)ccc2OCCn2c(C)nc3cc(Cl)c(N4CC(F)(F)C4)c(C#N)c3c2=O)c2scc(C(=O)O)c2n1  22.8
